test system: M. tuberculosis H37Rv growth inhibition with meropenem; assay: dose response, H37Rv, with and without meropenem (AID 434987); details: measured here: IC90 with meropenem;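 further: growth over 7 days at 37 °C before Alamar Blue read on day 9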
IC90 listing for selected molecules.

The molecule listed as `c1ccc(OCc2nnc(-c3ccccc3)o2)cc1` shows IC90 equal to > 100 µM

Measured IC90 of CCCC(C)NC(=O)c1ccc(OCc2ccc(Cl)cc2)c(OC)c1 (stereo unspecified) : 11.6 µM

For this molecule ( CC(C)C1CC(CCNCc2ccc(N(C)C)cc2)(c2ccccc2)CCO1 (stereo unspecified) ), measured IC90 is 26.9 µM

// IC90 value for `O=C(O)Cc1csc(Nc2cccc(Cl)c2)n1` : > 100 µM

So, `COc1ccc(-c2cc3cc(OC)c(OC)cc3c(C)n2)cc1` ? Its IC90 was > 100 µM

Entry `COc1cc(NC(=S)NC(=O)c2ccco2)ccc1NC(=O)C(C)C` — recorded IC90 = > 100 µM

***
Notebook: `C(=N\n1cnnc1)/c1ccc(-c2ccccc2)cc1` , IC90 read as > 100 µM

// IC90 value for `NC(=S)N/N=C/c1ccc2ccccc2c1` : > 100 µM

Form: molecule = CC1CCc2c(sc(NC(=O)CCCn3cnc([N+](=O)[O-])n3)c2C(N)=O)C1 (stereo unspecified) ; IC90 = 90.4 µM

Value of IC90 reported for the molecule C=CCSc1nnc2c(n1)OC(c1c(C)[nH]n(-c3ccccc3)c1=O)Nc1ccccc1-2 (stereo unspecified) is > 100 µM

response.value for `COc1ccc(C(=O)Nc2nc3ccc(OC)cc3s2)cc1` (field: IC90) = > 100 µM

###

system: M. tuberculosis H37Rv growth inhibition with meropenem; assay: dose response, H37Rv, with and without meropenem (AID 434987); conditions: measured here: IC90 with meropenem;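 further: growth over 7 days at 37 °C before Alamar Blue read on day 9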
Listed below: IC90 values for each entry.

// worked examples, IC90 included
Quick note, IC90 for `CCNc1nc(CN2CCCCC2)nc2scc(-c3ccccc3)c12` landed at 57.3 µM

Note to self: IC90 recorded for `O=C(COC(=O)C1=COCCO1)Nc1ccc2c(c1)OCO2` was > 100 µM

`COC(=O)Cn1c2ccccc2c2nc(C)sc21` has a reported IC90 of 27.8 µM

So, CCOC(=O)c1sc(NC(=O)Cn2nnc3sc4c(c3c2=O)CCC(C(C)(C)C)C4)nc1C (stereo not drawn) ? Its IC90 was > 100 µM

Measured IC90, `O=C(Nc1nc(-c2ccc(F)c(F)c2)cs1)c1cnccn1` : > 100 µM

***
Record `Cc1n[nH]c(C)c1CCCOc1ccccc1` , field IC90: > 100 µM

For this compound ( `COc1ccc(NC(=O)CCC2CCCC2)cc1OC` ), measured IC90 is > 100 µM

Please fill in: IC90 reported for Cc1ccc(/C=C/C(=O)OCC(=O)NC(C)c2ccccc2)o1 (stereo not drawn) = > 100 µM

Summary for this compound, `CN(/N=C/c1ccncc1)c1cnc2ccccc2n1` : IC90 is > 100 µM

Entry `COc1ccccc1-c1cc(C(=O)Nc2c(C)n(C)n(-c3ccccc3)c2=O)no1` ; IC90 = 19.5 µM

`CC(C)Cn1c2c(c(O)c(C(=O)Nc3nccs3)c1=O)CCCC2` yielded IC90 of > 100 µM

Recorded IC90 (compound `O=C(COC(=O)C1CC1)NCc1ccccc1Cl` ): > 100 µM

In plain terms, `O=S1(=O)CCO[C@H]2Cc3ccccc3[C@H]2N1Cc1ccc(F)cc1` has a documented IC90 of > 100 µM

IC90 measured on `Cc1ccc2c(c1)CCCN2C(=O)c1cc2ccccc2oc1=O` = > 25 µM

Lab book: IC90 of Cc1ccc(C)c(SCc2noc(C(=O)NCC3CCCO3)c2C(=O)O)c1 (stereo not drawn) noted as 48 µM

The measured IC90 associated with `O=C(COc1ccccc1)Nc1cc(C(F)(F)F)ccc1N1CCCC1` reads > 100 µM

IC90 measured on `COc1ccccc1NC(=O)COc1ccc(CO)cc1Cl` = > 100 µM

`CN1C(=O)/C(=C/c2ccc(C(=O)NC3CCCC3)cc2)Oc2ccccc21` has a reported IC90 of > 100 µM

The compound listed as `Cc1nn(CCc2nn[nH]n2)c2nc(-c3ccc(C4CCCCC4)cc3)cc(C(F)(F)F)c12` shows IC90 equal to > 100 µM

Lab note: `CN(C)S(=O)(=O)c1ccc(NC(=O)c2cc3ccccc3o2)cc1` gave IC90 of > 100 µM

###

test system: M. tuberculosis H37Rv growth inhibition with meropenem; assay: dose response, H37Rv, with and without meropenem (AID 434987);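 further: growth over 7 days at 37 °C before Alamar Blue read on day 9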; conditions: M. tuberculosis H37Rv growth inhibition; measured here: IC50 without meropenem
Quantity: IC50 (µM)
Your answer is read as µM, so omit the unit and give the number.

Consider the worked cases shown below.
The observed IC50 for `COc1cc(C(=O)N/N=C/c2ccc(OC(=O)c3cccc(C)c3)cc2)ccc1O` when tested with M. tuberculosis H37Rv growth inhibition with meropenem stands at 77.7

# value of IC50, M. tuberculosis H37Rv growth inhibition with meropenem, item `O=S(=O)(Cc1ccccc1)c1cnc2ccccc2n1` = 24.3

Hey, M. tuberculosis H37Rv growth inhibition with meropenem data for `CCCCCCCN(C(=O)CCl)c1ccccc1C` : IC50 came out at 11.8

The reported M. tuberculosis H37Rv growth inhibition with meropenem IC50 of OC(COC(c1ccccc1)c1ccccc1)CN1CCN(c2cccc(Cl)c2)CC1 (stereo unspecified) is 47.4

M. tuberculosis H37Rv growth inhibition with meropenem IC50 of CC1CCCN(C(=O)C2CCN(c3ncnc4c3nc3n4CCCCC3)CC2)C1 (stereo unspecified) is 89.8

Continuing:
Result for `COc1cc(/C=C/c2ccc3cccc([N+](=O)[O-])c3n2)ccc1OCC(=O)O` , tested on M. tuberculosis H37Rv growth inhibition with meropenem, IC50: 24.9

###

Attribute: IC90
system: M. tuberculosis H37Rv growth inhibition with meropenem; assay: dose response, H37Rv, with and without meropenem (AID 434987); details: measured here: IC90 with meropenem;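 further: growth over 7 days at 37 °C before Alamar Blue read on day 9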

Example cases with answers are listed next.
Recorded result, `CCOc1ccc2cc(S(=O)(=O)N3CCCCC3)ccc2c1` , IC90: > 100 µM

The compound listed as `O=C(NNC1=C(C(=O)C(F)(F)F)CCC1)c1cccc(O)c1` shows IC90 equal to > 100 µM

Reported IC90 ( `Cc1ccc(-n2nnnc2Sc2nc([N+](=O)[O-])nn2C)c(C)c1` ) = > 100 µM

IC90 for `COc1cc(/C=C/c2ccc3cccc([N+](=O)[O-])c3n2)ccc1OCC(=O)O` is 12 µM

In plain terms, `Cc1cc(C)cc(OCC(=O)NNC(=O)c2ccccn2)c1` has a documented IC90 of 16 µM

Note to self: IC90 recorded for `Cc1ccc(Nc2nc(N)nc(CC#N)n2)cc1` was 92.7 µM

According to the records, this compound `CC(C)c1ccc(/C=C/C(=O)NC2CCCCC2)cc1` displays IC90 of > 100 µM

The recorded IC90 for `O=C(/C=C/c1ccccc1[N+](=O)[O-])c1ccc(F)cc1` is > 100 µM

// recorded IC90 for CC(=O)Nc1ccc(C(=O)N(C2=NC(C)CS2)c2ccc(Cl)cc2)cc1 (stereo not given) : > 100 µM

Memo: `O=C(COc1ccccc1)Nc1cccc(-c2nnc(-c3ccccc3)o2)c1` , reported IC90: > 100 µM

New cases:
Data point: COc1ccc(NCC(=O)N/N=C/C(C)c2ccccc2)cc1 (stereo not given) ; IC90 = > 100 µM

Value of IC90 reported for the compound CC(C)(C)c1ccc(OCc2ccc(C(=O)N/N=C3\CC4CC=CC34)cc2)cc1 (stereo not given) is 45.3 µM

Quick note, IC90 for `C=C(C)COc1ccc(-c2nc(N)ncc2Oc2ccc(OC)cc2)c(O)c1` landed at > 100 µM

IC90 recorded for this compound, `O=C(CCNc1ccc(F)cc1)c1cccc([N+](=O)[O-])c1` , is > 100 µM

Record summary for `N#C/C(=C(/O)COC(=O)CCc1ccc(S(=O)(=O)N2CCOCC2)cc1)c1nc2ccccc2[nH]1` : reported IC90 = > 100 µM

Entry under test: OCCCn1c(C2CCCN2c2nc(-c3ccc(Cl)cc3)cs2)nc2cc(Cl)c(Cl)cc21 (stereo not given) . Its IC90 was > 100 µM

Memo: `COc1cc(OC)c(C(=O)Nc2cccc3ccccc23)cc1OC` , reported IC90: > 100 µM

The measured IC90 associated with CC1CN(C2CCCCC2)c2nc3c(c(=O)[nH]c(=O)n3C)n2C1 (stereo not given) reads > 100 µM

Entry `O=C(Nc1ccc2oc(-c3ccc(Cl)c(Cl)c3)nc2c1)c1ncn[nH]1` , IC90 reported as > 100 µM

###

system: M. tuberculosis H37Rv growth inhibition with meropenem; assay: dose response, H37Rv, with and without meropenem (AID 434987); details: measured here: IC90 with meropenem;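 further: growth over 7 days at 37 °C before Alamar Blue read on day 9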
Quantity: IC90

GET /value?item= CCCC(C(=O)N1CCOCC1)N1C(=O)C2C3C=CC(C3)C2C1=O (stereo not given) &field=IC90 returns > 100 µM

Continuing:
Per the record, `COc1cc(OC)cc(-c2cc3ccc(OC)cc3cn2)c1` has IC90 of 76.9 µM

Looking up `COc1cccc(NC(=O)C2CC2)c1` , I found its IC90 recorded as > 100 µM

Entry under test: `Cc1c(C(=O)c2ccccc2)oc2ccc3ccccc3c12` . Its IC90 was > 100 µM
